test system: Lefty1; test: Lefty1 protein binding to printed compounds – biochemical, small-molecule microarray, 635/667 nm fluorescence, primary screen (AID 1139); conditions: fluorescence 635/667, higher = more signal
propertyLabel: composite z-score

| compound | propertyLabel | numericReadout |
| --- | --- | --- |
| O=C1OCCC=C[C@H]2OC34C=CCN(Cn5nnc6ccccc65)C(=O)[C@H]3N(CCCCCO)C(=O)[C@@H]4C12 (some centres undefined) | composite z-score | -0.559 |
| O=C1C2C=CC(C(O)c3cccc4ccccc34)N(Nc3ccccc3)C2C(=O)N1c1ccccc1 (centres undefined) | composite z-score | 0.576 |
| N#Cc1ccc(NN2C(C(O)c3ccco3)C=CC3C(=O)N(c4ccccc4)C(=O)C32)cc1 (centres undefined) | composite z-score | -0.231 |
| CCCC=C(CCC)[C@@H](NC(=O)Cc1ccccc1)c1ccc(C(=O)OC)cc1 | composite z-score | -0.365 |
| COCCCNC(=O)[C@@]1(Cc2ccccc2CN=[N+]=[N-])N=C(c2ccc(OCCCO)cc2)O[C@H]1c1ccccc1N=[N+]=[N-] | composite z-score | 0.0538 |
| C=CCC(OC(C)=O)[C@@H]1[C@@H](N(Cc2cc3ccccc3o2)C(=O)Cc2ccc(OC)cc2)c2cc(OCCCO)ccc2N1C(=O)c1ccc(-c2ccccc2)cc1 (some centres undefined) | composite z-score | -0.492 |
| COC(=O)[C@]1(Cc2ccccc2CN=[N+]=[N-])N=C(c2ccc(OCCCO)cc2)O[C@@H]1c1ccccc1 | composite z-score | -0.429 |
| Cc1ccc(S[C@]2(C(=O)O)CC(=O)N(Cc3ccccc3C(F)(F)F)[C@@H]2c2ccc(CO)cc2)cc1 | composite z-score | -1.27 |
| COCCCNC(=O)[C@@]1(Cc2ccccc2)COC(c2ccc(OCCCO)cc2)=N1 | composite z-score | -1.07 |

---

test system: Sonic hedgehog protein (Shh); experiment: Sonic hedgehog microarray binding compounds – biochemical, small-molecule microarray, 635/667 nm fluorescence, primary screen (AID 1151); conditions: 635 nm fluorescence, higher = more signal;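 note: Shh protein binding to compounds spotted on small-molecule microarray slides; score combines spot fluorescence intensity with signal-to-noise across triplicate slides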
composite z-score: recorded values
propertyLabel: composite z-score

| compound | result |
| --- | --- |
| Cc1ccc(S[C@]2(C(=O)NCC(C)C)CC(=O)N(C3CCCCC3)[C@@H]2c2ccc(CO)cc2I)cc1 | 0.104 |
| [N-]=[N+]=NCc1ccccc1C[C@]1(C(=O)NCCN2CCOCC2)N=C(c2ccc(OCCCO)cc2)O[C@H]1c1ccccc1 | 1.1 |
| CCCNC(=O)[C@@]1(Sc2ccc(C)cc2)CC(=O)N(Cc2ccccc2)[C@@H]1c1ccc(CO)cc1I | 1.96 |
| COCCCNC(=O)[C@]1(CCS(=O)(=O)c2ccccc2)N=C(c2ccc(OCCCO)cc2)O[C@@H]1c1ccccc1 | 0.306 |
| CO[C@H]1O[C@H](CO)[C@@H](OC(=O)Nc2cccc(F)c2)[C@H](OC(=O)Nc2ccc3c(c2)OCO3)[C@H]1OC(=O)Nc1ccc2c(c1)OCO2 | 1.52 |
| C=C(CCCC)/C(=C/C[C@H](OC(=O)c1ccncc1)c1ccc(CO)o1)c1cc(C(=O)OC)ccc1OC | 1.63 |
| NCCCCCCNC(=O)[C@H]1C[C@H]2C(=O)N3CCC[C@H]3C(=O)N2[C@H]1c1ccc(O)cc1 | 1.86 |
| COc1ccccc1CN1C(=O)c2ccccc2[C@](Cc2ccccc2I)(C(=O)NCCN2CCOCC2)[C@@H]1c1ccc(CO)cc1 | 1.48 |
| Cc1cc(C)c(C(O)C2C=CC3C(=O)N(c4ccccc4)C(=O)C3N2Nc2ccc([N+](=O)[O-])cc2)c(C)c1 (configuration not stated) | 0.697 |
| COc1cc(NN2C(C(O)c3ccc(I)cc3)C=CC3C(=O)N(C)C(=O)C32)cc(OC)c1OC (configuration not stated) | -0.441 |
| COC(=O)[C@@]1(Cc2ccc(OC)cc2)[C@H]2c3cc(C(=O)N(C)C)n(Cc4cc(C)n(C)n4)c3C[C@H]2CN1C(=O)c1ccccc1 | -0.797 |
| CC(=O)NCCCC[C@@H]1NC(=O)[C@H]2C[C@@H](C(=O)NCCCCCN)[C@@H](c3cccc(OCCO)c3)N2C1=O | -0.0725 |
| C=CCOC(=O)[C@H]1[C@@H]2C(=O)O[C@@H](c3ccccc3)[C@@H](c3ccccc3)N2[C@@H](c2ccc(OCCOC(=O)[C@H]3C[C@H]4C(=O)N[C@@H](CCCCN(C)C)C(=O)N4[C@H]3c3ccc(O)cc3)cc2)[C@]12C(=O)Nc1ccccc12 | 1.42 |
| COc1ccccc1CN1C(=O)c2ccccc2[C@@H](C(=O)NCC(C)C)[C@@H]1c1ccc(CO)cc1 | 0.0072 |
| [N-]=[N+]=NCc1ccccc1C[C@]1(C(=O)NCCN2CCOCC2)COC(c2ccc(OCCCO)cc2)=N1 | -0.204 |
| C[N+](C)(C)CCCC[C@@H]1NC(=O)[C@H]2C[C@@H](C(=O)NCCCCCCN)[C@@H](c3cccc(OCCO)c3)N2C1=O | 2.04 |
| COC(=O)[C@@]1(Cc2ccc(F)cc2)[C@H]2c3cc(C(=O)N(C)C)n(Cc4ccc(C)c(F)c4F)c3C[C@H]2CN1C(=O)c1ccccc1 | -0.553 |
